Provide the recorded inhibition at 1 µM for the entries that follow.
# assay.system: N-type calcium channel (Homo sapiens, UniProt Q00975)
# Sequence (Q00975 whole entry): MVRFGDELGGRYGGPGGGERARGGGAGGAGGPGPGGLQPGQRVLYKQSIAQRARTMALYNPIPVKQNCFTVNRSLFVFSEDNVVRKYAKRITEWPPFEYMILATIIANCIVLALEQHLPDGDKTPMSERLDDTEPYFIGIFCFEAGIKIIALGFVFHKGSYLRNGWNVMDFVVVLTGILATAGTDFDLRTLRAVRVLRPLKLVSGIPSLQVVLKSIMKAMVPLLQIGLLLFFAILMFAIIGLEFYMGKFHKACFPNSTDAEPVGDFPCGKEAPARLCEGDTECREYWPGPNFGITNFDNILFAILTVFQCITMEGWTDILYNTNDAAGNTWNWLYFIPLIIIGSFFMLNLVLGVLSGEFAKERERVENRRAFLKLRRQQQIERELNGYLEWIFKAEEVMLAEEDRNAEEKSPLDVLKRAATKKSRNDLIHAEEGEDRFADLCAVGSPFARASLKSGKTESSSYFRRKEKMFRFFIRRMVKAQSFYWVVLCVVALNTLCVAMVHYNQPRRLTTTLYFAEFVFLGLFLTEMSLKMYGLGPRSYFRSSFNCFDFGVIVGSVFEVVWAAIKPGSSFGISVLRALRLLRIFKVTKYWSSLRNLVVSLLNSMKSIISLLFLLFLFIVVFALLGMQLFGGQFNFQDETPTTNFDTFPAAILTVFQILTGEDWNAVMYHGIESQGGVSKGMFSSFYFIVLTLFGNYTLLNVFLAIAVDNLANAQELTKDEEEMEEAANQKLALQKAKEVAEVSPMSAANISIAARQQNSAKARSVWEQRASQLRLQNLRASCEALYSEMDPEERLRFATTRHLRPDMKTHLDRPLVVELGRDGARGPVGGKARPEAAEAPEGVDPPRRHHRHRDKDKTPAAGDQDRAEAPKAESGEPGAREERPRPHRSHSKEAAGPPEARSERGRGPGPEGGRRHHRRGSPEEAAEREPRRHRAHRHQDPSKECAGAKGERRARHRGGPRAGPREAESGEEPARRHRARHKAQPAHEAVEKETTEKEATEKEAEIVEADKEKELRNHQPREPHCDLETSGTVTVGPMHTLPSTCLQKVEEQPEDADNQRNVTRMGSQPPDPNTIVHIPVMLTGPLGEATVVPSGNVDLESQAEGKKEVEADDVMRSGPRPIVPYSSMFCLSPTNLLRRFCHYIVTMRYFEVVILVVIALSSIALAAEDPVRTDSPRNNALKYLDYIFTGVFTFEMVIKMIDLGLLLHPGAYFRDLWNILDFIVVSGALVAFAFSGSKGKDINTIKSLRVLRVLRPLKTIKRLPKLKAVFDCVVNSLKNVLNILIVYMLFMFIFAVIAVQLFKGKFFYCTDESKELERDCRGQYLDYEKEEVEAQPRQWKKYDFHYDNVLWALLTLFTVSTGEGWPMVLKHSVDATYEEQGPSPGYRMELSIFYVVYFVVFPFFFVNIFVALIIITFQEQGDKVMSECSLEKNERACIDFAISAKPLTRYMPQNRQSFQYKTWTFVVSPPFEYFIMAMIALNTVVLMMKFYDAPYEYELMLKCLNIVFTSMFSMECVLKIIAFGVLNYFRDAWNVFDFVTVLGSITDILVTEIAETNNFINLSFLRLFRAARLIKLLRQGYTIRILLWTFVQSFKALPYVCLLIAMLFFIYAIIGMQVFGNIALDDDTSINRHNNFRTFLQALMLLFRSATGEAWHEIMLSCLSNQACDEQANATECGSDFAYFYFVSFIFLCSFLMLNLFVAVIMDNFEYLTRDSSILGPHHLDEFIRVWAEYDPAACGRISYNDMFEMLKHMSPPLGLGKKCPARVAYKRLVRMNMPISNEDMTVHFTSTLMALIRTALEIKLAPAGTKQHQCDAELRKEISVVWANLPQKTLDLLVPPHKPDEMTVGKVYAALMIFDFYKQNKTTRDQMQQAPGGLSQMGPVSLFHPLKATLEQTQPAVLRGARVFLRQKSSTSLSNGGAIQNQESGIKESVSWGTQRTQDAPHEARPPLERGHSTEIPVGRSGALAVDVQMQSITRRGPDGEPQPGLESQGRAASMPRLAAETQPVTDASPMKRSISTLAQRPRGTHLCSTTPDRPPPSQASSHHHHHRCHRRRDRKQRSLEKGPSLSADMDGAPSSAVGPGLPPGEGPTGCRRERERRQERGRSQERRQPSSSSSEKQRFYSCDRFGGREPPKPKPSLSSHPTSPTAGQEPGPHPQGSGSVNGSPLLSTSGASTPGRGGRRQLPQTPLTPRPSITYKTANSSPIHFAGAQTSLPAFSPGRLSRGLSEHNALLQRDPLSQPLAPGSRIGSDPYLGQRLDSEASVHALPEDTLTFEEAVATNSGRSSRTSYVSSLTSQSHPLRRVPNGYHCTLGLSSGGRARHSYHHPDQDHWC
# Sequence (P54284 whole entry partner): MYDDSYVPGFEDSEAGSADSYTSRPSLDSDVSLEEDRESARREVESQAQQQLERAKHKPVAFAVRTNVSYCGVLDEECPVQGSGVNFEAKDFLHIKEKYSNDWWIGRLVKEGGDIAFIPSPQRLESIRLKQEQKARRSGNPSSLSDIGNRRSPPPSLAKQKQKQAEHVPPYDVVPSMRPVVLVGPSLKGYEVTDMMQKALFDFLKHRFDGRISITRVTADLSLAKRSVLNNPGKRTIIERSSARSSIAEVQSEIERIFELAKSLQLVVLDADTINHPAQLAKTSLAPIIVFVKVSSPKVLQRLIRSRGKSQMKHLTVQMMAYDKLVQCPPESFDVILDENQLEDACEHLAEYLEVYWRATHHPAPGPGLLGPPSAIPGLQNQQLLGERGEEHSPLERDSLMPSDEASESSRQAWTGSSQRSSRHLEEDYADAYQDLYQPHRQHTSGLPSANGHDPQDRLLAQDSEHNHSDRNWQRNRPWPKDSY
# Sequence (P54289 25-946 partner limits assumed): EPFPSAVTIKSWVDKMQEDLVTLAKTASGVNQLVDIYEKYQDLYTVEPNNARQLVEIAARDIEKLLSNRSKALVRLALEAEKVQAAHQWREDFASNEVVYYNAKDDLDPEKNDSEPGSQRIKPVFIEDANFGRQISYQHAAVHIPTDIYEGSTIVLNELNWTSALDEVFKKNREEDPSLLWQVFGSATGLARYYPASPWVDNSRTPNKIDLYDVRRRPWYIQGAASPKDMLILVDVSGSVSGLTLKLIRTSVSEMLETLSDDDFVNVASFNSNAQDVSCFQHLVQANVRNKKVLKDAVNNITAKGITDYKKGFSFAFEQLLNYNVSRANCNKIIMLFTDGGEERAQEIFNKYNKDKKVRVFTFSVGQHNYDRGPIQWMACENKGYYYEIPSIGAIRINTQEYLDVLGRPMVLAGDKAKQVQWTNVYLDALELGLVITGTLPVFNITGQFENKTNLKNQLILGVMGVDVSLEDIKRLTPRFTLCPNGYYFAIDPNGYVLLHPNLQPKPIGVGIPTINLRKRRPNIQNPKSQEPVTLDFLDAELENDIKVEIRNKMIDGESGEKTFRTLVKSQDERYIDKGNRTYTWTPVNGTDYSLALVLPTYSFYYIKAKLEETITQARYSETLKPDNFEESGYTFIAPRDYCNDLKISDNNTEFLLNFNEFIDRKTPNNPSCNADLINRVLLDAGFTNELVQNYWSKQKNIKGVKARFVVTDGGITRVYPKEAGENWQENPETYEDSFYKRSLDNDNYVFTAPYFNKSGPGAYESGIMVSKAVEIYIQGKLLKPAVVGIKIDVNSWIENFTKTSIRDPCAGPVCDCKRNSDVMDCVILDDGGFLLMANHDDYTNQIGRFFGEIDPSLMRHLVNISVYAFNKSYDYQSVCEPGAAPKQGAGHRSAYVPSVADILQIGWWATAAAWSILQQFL
# Sequence (P54289 947-1103 partner limits assumed): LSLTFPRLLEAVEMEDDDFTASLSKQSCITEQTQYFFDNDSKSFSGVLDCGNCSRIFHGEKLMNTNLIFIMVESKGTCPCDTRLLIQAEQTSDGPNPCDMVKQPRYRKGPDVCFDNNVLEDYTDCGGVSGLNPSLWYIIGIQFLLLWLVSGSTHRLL
# assay.method.text: Automated Electrophysiology Assay (QPatch-HT whole-cell patch clamp; low- and high-frequency stimulation)
# Assay type: cell-based
# condition.context: 1 μM; high-frequency stimulation (15th pulse); read-out: QPatch at High Frequency % Inhibition
Give your result in % as a bare value.

Q) Recorded inhibition at 1 µM of COc1ccccc1-n1nc2c(c1-c1ccc(Cl)cc1)CC1(C2)O[C@@H](C)[C@@H](C)O1 (stereo partly drawn) , please.
A) 58

Q) Follow-up entry: `COc1ccc(-c2c3c(nn2-c2ccccc2OC)C[C@H](N(C)S(=O)(=O)N(C)C)C3)cn1`
A) 47

Q) Now the same for `COc1ccccc1-n1nc2c(c1-c1ccc(Cl)cc1)CC1(C2)OCCCO1`
A) 67

###

# assay.system: N-type calcium channel (Homo sapiens, UniProt Q00975)
# assay.method.text: Automated Electrophysiology Assay (QPatch-HT whole-cell patch clamp; low- and high-frequency stimulation)
# Format: cell-based
# condition.context: 0.1 μM; high-frequency stimulation (15th pulse); read-out: QPatch at High Frequency % Inhibition
measurement.name: inhibition at 0.1 µM (%)
// units = %; emit number, no label

Q) What value of measured inhibition at 0.1 µM is listed for COc1ccccc1-n1nc2c(c1-c1ccc(Cl)cc1)CC1(C2)O[C@@H](C)[C@@H](C)O1 (stereo partly shown) [Compound 103] ?
A) 46

Q) Same again, this time with COc1ccccc1-n1nc2c(c1-c1ccc(C)nc1)CC1(C2)OC(C)(C)C(C)(C)O1 [Compound 109]
A) 9

Q) Also, COc1ccccc1-n1nc2c(c1-c1ccc(Cl)cc1)CC1(C2)O[C@H](C)[C@@H](C)O1 [Compound 98] please.
A) 28

Q) Also, CCOc1ccccc1-n1nc2c(c1-c1ccc(Cl)cc1)CC(NS(=O)(=O)N(C)C)C2 (stereo not shown) [Compound 47] please.
A) 19

Q) And then COc1ccccc1-n1nc2c(c1-c1ccc(Cl)cc1)C[C@H](O[C@H]1C[C@@H]3CC[C@H]1C3)C2 [Compound 89] , what is it?
A) 26

Q) Proceed to COc1ccccc1-n1nc2c(c1-c1ccc(C#N)cc1)CC(CC(C)C)C2 (stereo not shown) [Compound 105]
A) 20

Q) Now this one: COc1ccccc1-n1nc2c(c1-c1ccc(N(C)C)cc1)CC1(C2)OC(C)(C)C(C)(C)O1 [Compound 107]
A) 33

###

# assay.system: N-type calcium channel (α1B (Cav2.2), β3 and α2δ subunits) (Homo sapiens, UniProt Q00975)
# Sequence (Q00975 whole entry): as the sequence (Q00975 whole entry) above
# Sequence (P54284 whole entry partner): as the sequence (P54284 whole entry partner) above
# Sequence (P54289 25-946 partner limits assumed): as the sequence (P54289 25-946 partner limits assumed) above
# Sequence (P54289 947-1103 partner limits assumed): as the sequence (P54289 947-1103 partner limits assumed) above
# assay.method.text: Functional Assay: Antagonism of N-Type Calcium Channel (FDSS calcium mobilization, KCl depolarization)
# Assay type: cell-based
# condition.context: HEK cell line, 50 mM KCl depolarization, six-point concentration-response; read-out: FDSS IC50
pIC50: −log10 of the molar value.
Where pIC50 equals or exceeds 8, the correct label is 1.0; where it does not, the label is 0.0.

Q) Textbook exercise: given the entry `COc1ccccc1-n1nc2c(c1-c1ccc(C#N)cc1)CC1(C2)OCC(C)(C)CO1` , state whether its pIC50 is greater than or equal to 8.
A) 0.0

Q) Can you handle `CCOc1ccccc1-n1nc2c(c1-c1ccc(Cl)cc1)C[C@@H](N(C)S(=O)(=O)N(C)C)C2` next?
A) 1.0

Q) Query COc1ccccc1-n1nc2c(c1-c1ccc(Cl)cc1)C[C@H](OC1CCCCO1)C2 (some centres unmarked) next
A) 0.0

Q) Same lookup for `CCc1nc(C)n([C@@H]2Cc3nn(-c4ccccc4OC)c(-c4ccc(C#N)cc4)c3C2)c1CC` , please.
A) 0.0

Q) // query: COc1ccccc1-n1nc2c(c1-c1ccc(Cl)cc1)CC1(C2)O[C@@H](C)[C@@H](C)O1 (some centres unmarked) [Compound 103]
A) 1.0

Q) Please answer likewise for `COc1ccccc1-n1nc2c(c1-c1ccc(Cl)cc1)C[C@H](OC(=O)C(C)C)C2`
A) 0.0

###

# assay.system: N-type calcium channel (α1B (Cav2.2), β3 and α2δ subunits) (Homo sapiens)
# assay.method.text: Functional Assay: Antagonism of N-Type Calcium Channel (FDSS calcium mobilization, KCl depolarization)
# Format: cell-based
# condition.context: 0.33 μM
measurement.name: inhibition at 0.33 µM (%)
Express the result in % but write the number alone.

Q) Tell me the measured inhibition at 0.33 µM of `COc1ccccc1-n1nc2c(c1-c1ccc(Cl)cc1)C[C@H](OC1CCCCC1)C2` , please.
A) 83

Q) Same again, this time with CCOc1ccccc1-n1nc2c(c1-c1ccc(Cl)cc1)CC(N(C)S(=O)(=O)N(C)C)C2 (centres unmarked)
A) 97

Q) Param item: `CCc1nccn1[C@@H]1Cc2nn(-c3ccccc3OC)c(-c3ccc(C#N)cc3)c2C1`
A) 50

Q) Similarly, `COc1ccccc1-n1nc2c(c1-c1ccc(N(C)C)nc1)CC1(C2)OCC(C)(C)CO1` ?
A) 88

Q) Proceed to COc1ccccc1-n1nc2c(c1-c1ccccc1)CC(C#N)C2 (centres unmarked)
A) 59

Q) Another molecule to look at: `COc1ccccc1-n1nc2c(c1-c1ccc(Cl)cc1)C[C@H](OC(=O)C1CCCC1)C2`
A) 82

Q) How about `COc1ccccc1-n1nc2c(c1-c1ccc(Cl)cc1)C[C@@H](Oc1ccccn1)C2` ?
A) 77

Q) Lookup `COc1ccccc1-n1nc2c(c1-c1ccc(C)nc1)CC1(C2)OCC(C)(C)CO1`
A) 67

###

# assay.system: N-type calcium channel (α1B (Cav2.2), β3 and α2δ subunits) (Homo sapiens, UniProt Q00975)
# assay.method.text: Functional Assay: Antagonism of N-Type Calcium Channel (FDSS calcium mobilization, KCl depolarization)
# Type: cell-based
# condition.context: 0.33 μM
Class (by inhibition at 0.33 µM) -- low: < 80%; moderate: ≥ 80% and < 90%; high: ≥ 90%

Q) # bin label for COc1ccccc1-n1nc2c(c1-c1ccc(C#N)cc1)C[C@H](n1cnc(C)c1C)C2 [Compound 131]
A) low

Q) And CCOc1ccccc1-n1nc2c(c1-c1ccc(Cl)cc1)C[C@@H](NC(=O)C(F)(F)F)C2 [Compound 45] ?
A) high

Q) Could you do the same for COc1ccccc1-n1nc2c(c1-c1ccc(Cl)cc1)C[C@H](O[C@H]1C[C@@H]3CC[C@H]1C3)C2 [Compound 89] , please?
A) moderate

Q) Same thing, different compound: COc1ccccc1-n1nc2c(c1-c1ccc(Cl)cc1)CC(N1CCCC1)C2 (stereo not shown) [Compound 122]
A) low

Q) And for COc1ccccc1-n1nc2c(c1-c1ccc(Cl)s1)CC1(C2)OC(C)(C)C(C)(C)O1 [Compound 121] ?
A) moderate

Q) What would you report for CCC(CC)C(=O)O[C@H]1Cc2nn(-c3ccccc3OC)c(-c3ccc(Cl)cc3)c2C1 [Compound 55] ?
A) high

Q) Further, for CCOc1ccc(-c2c3c(nn2-c2ccccc2OC)CC2(C3)OC(C)(C)C(C)(C)O2)cn1 [Compound 108] ?
A) moderate

Q) Same question, COc1ccccc1-n1nc2c(c1-c1ccc(Cl)cc1)CC1(C2)O[C@@H](C)[C@H](C)O1 [Compound 99] this time
A) high

Q) Entry to check: COc1ccccc1-n1nc2c(c1-c1ccc(Cl)cc1)C[C@@H](OC)C2 [Compound 49]
A) low

Q) Moving on to CCOc1ccccc1-n1nc2c(c1-c1ccc(Cl)cc1)C[C@@H](N(C)S(=O)(=O)N(C)C)C2 [Compound 46]
A) high

###

# assay.system: N-type calcium channel (Homo sapiens)
# assay.method.text: Automated Electrophysiology Assay (QPatch-HT whole-cell patch clamp; low- and high-frequency stimulation)
# Format: cell-based
# condition.context: 1 μM; high-frequency stimulation (15th pulse); read-out: QPatch at High Frequency % Inhibition
Output satisfied for inhibition at 1 µM not less than 70%; output not satisfied otherwise.

Q) Evaluate CCC(CC)C(=O)O[C@H]1Cc2nn(-c3ccccc3OC)c(-c3ccc(Cl)cc3)c2C1 [Compound 55] : inhibition at 1 µM at minimum 70%?
A) satisfied

Q) For COc1ccccc1-n1nc2c(c1-c1ccc(C#N)cc1)CC(CC(C)C)C2 (centres unmarked) [Compound 105] then?
A) not satisfied

Q) Okay, and COc1ccccc1-n1nc2c(c1-c1ccc(C#N)cc1)C[C@H](n1cc(C3CCCC3)nn1)C2 [Compound 124] ?
A) satisfied

Q) Try COc1ccccc1-n1nc2c(c1-c1ccc(C#N)cc1)CC1(C2)OCC(C)(C)CO1 [Compound 91] next.
A) not satisfied

Q) Same for COc1ccccc1-n1nc2c(c1-c1ccc(Cl)cc1)CC(CNS(C)(=O)=O)C2 (centres unmarked) [Compound 8]
A) not satisfied

Q) Next compound up: COc1ccccc1-n1nc2c(c1-c1ccc(Cl)cc1)CC(CCNC(=O)OC(C)(C)C)C2 (centres unmarked) [Compound 13]
A) not satisfied

Q) Repeat with CCc1ccccc1-n1nc2c(c1-c1ccc(Cl)cc1)CC(CNC(=O)OC(C)(C)C)C2 (centres unmarked) [Compound 16]
A) not satisfied

Q) Also COc1ccccc1-n1nc2c(c1-c1ccc(Cl)cc1)C[C@H](OC(=O)C1CCC1)C2 [Compound 80] ?
A) not satisfied

Data origin: patent US8853418B2
